ASSAY_EXPLANATION: compound effects on multiple myeloma cell viability – MM1S, calcein-AM fluorescence, 48 h, basal, profiling panel (AID 1165);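 further: viability of MM1S multiple myeloma cells under basal unstimulated conditions; test concentration not given here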
ASSAY_SETUP: higher = more signal
Assign yes (1) whenever z-score does not fall below -0.4; assign no (0) whenever it does.

COMPOUND: CN1C(=O)C2C=CC(C(O)c3c(F)cccc3Cl)N(NC(=O)OC(C)(C)C)C2C1=O (stereo not given)
ASSIGNED_LABEL: yes (1)
--
COMPOUND: C#CCN(C/C=C/c1ccccc1)[C@H](CO)c1ccccc1
ASSIGNED_LABEL: no (0)
--
COMPOUND: COc1cc2c(cc1O)C(c1cccs1)N(Cc1ccc([N+](=O)[O-])o1)CC2 (stereo not given)
ASSIGNED_LABEL: yes (1)

Could you verify whether the entry C[C@H]1C2[C@H](Cc3ccccc3)NC(=O)[C@]23C(=O)NCC(=O)N2CCC[C@H]2C(=O)NC/C=C/CCC/C=C/C3[C@@H]2O[C@]12C (stereo not given in full) shows z-score of no less than -0.4?
yes (1)

Could you verify whether the entry COc1ccc(-c2cc3c(c(Cc4ccccc4)n2)[Si](C(C)C)(C(C)C)OC3)cn1 shows z-score of no less than -0.4?
no (0)

====

System: Noggin (protein binding on small-molecule microarray)
ASSAY_EXPLANATION: small molecules binding Noggin protein – biochemical, 635/667 nm fluorescence, primary screen (AID 1095);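 further: score merges 667 nm feature fluorescence with signal to noise over triplicate slides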
ASSAY_SETUP: 635 nm fluorescence, higher = more signal
Assign Satisfied whenever composite z-score does not fall below 0.5; assign Not satisfied whenever it does.

Observe how each entry below is paired with its result.
MOLECULE: [N-]=[N+]=Nc1ccccc1C[C@@]1(C(=O)N2CCCCC2)N=C(c2ccc(OCCCO)cc2)O[C@@H]1c1ccccc1
ASSIGNED_LABEL: Not satisfied
//
MOLECULE: CO[C@H]1O[C@H](CO)[C@@H](OC(=O)Nc2ccc(Oc3ccccc3)cc2)[C@H](OC(=O)Nc2ccc3c(c2)OCO3)[C@@H]1OC(=O)Nc1ccc2c(c1)OCO2
ASSIGNED_LABEL: Satisfied
//
MOLECULE: [N-]=[N+]=Nc1ccccc1[C@H]1OC(c2ccc(OCCCO)cc2)=N[C@@]1(Cc1ccccc1)C(=O)N1CCOCC1
ASSIGNED_LABEL: Not satisfied
//
MOLECULE: C=CC[C@]12N=C(c3ccc(OCCCO)cc3)O[C@H]1c1ccccc1N(CCS(=O)(=O)c1ccccc1)C2=O
ASSIGNED_LABEL: Satisfied
//
MOLECULE: O[C@@H](Cc1ccccc1)[C@@H](/C=C/C1CC1)NCc1cccc(Cl)c1
ASSIGNED_LABEL: Not satisfied
//
MOLECULE: O=C1C2C=CC(C(O)c3ccc4c(c3)OCO4)N(Nc3ccc([N+](=O)[O-])cc3)C2C(=O)N1c1ccccc1 (stereo not drawn)
ASSIGNED_LABEL: Not satisfied

Could you verify whether the entry COc1cc2c(cc1O)C(c1cccs1)N(Cc1cccc(OC(F)(F)F)c1)CC2 (stereo not drawn) shows composite z-score of no less than 0.5?
Not satisfied

====

TGT: Streptavidin (Streptomyces avidinii) (UniProt P22629)
Sequence (P22629 whole entry, looked up): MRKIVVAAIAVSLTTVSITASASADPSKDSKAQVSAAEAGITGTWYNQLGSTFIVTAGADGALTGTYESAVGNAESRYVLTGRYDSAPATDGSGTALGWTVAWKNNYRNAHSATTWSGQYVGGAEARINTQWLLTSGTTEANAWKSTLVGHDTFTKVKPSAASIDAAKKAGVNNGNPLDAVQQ
ASSAY_EXPLANATION: compounds binding control protein streptavidin – biophysical, small-molecule microarray, 635/667 nm fluorescence, artefact control for SMM compound annotation, primary screen (AID 1147);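 further: signal reflects streptavidin binding to arrayed compounds as a control protein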
ASSAY_SETUP: higher = more signal
Assign fulfilled whenever composite z-score does not fall below 0.1; assign not fulfilled whenever it does.

COMPOUND: CC(C)N1CC=CC23O[C@@H]4C=CCOC(=O)[C@@H]4[C@H]2C(=O)N(CCCCCO)[C@@H]3C1=O (some centres not stated)
ASSIGNED_LABEL: not fulfilled

Could you verify whether the entry Cc1ccc(S[C@]2(C(=O)O)CC(=O)N(C(C)C)[C@@H]2c2ccc(CO)cc2)cc1 shows composite z-score of no less than 0.1?
not fulfilled

Could you verify whether the entry COC(=O)c1c2oc(c1C(=O)OC)C(=O)NC1(CCCCC1)c1cn(nn1)C[C@H](Cc1ccccc1)NC(=O)N[C@H](CO)CC2 shows composite z-score of no less than 0.1?
fulfilled

Could you verify whether the entry O=C1C2C=CC(C(O)c3c(F)cccc3Cl)N(Nc3ccccc3F)C2C(=O)N1c1ccccc1 (configuration not stated) shows composite z-score of no less than 0.1?
fulfilled

====

ASSAY_EXPLANATION: blood-stage malaria parasite viability loss – strain 3D7, DAPI fluorescence, 100 nL, primary screen (AID 1184);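 further: parasites grown inside human red blood cells in medium with human serum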
ASSAY_SETUP: P. falciparum 3D7 growth, 3 d, higher = more signal
METRIC: z-score
No unit in the answer, please; the number alone is enough.

Consider the worked cases shown below.
MOLECULE: Cc1c(NC(=O)/C(C#N)=C/c2cccc([N+](=O)[O-])c2)c(=O)n(-c2ccccc2)n1C
VALUE_MEASURED: -0.413
//
MOLECULE: [N-]=[N+]=Nc1ccccc1[C@H]1OC(c2ccc(OCCCO)cc2)=N[C@@]1(Cc1ccccc1)C(=O)N1CCOCC1
VALUE_MEASURED: -2.19
//
MOLECULE: COc1cc2c(cc1OC)CN(C(=O)[C@H]1[C@@H]3C(=O)O[C@@H](c4ccccc4)[C@@H](c4ccccc4)N3[C@@H](c3ccccc3OCCO)[C@]13C(=O)Nc1ccc(C#CCCO)cc13)CC2
VALUE_MEASURED: -2.16
//
MOLECULE: [N-]=[N+]=Nc1ccccc1C[C@]1(C(=O)N2CCCCC2)COC(c2ccc(OCCCO)cc2)=N1
VALUE_MEASURED: -2.29
//
MOLECULE: C=CC[C@]1(C(N)=O)COC(c2ccc(OCCCO)cc2)=N1
VALUE_MEASURED: 0.668
//
MOLECULE: O=C1C2C=CC(C(O)c3ccc(-c4ccccc4)s3)N(Nc3ccccc3)C2C(=O)N1c1ccccc1 (configuration not stated)
VALUE_MEASURED: -0.657

Query molecule follows.
COC(=O)c1c2oc(c1C(=O)OC)C(=O)N[C@@H](C(C)C)Cn1cc(nn1)C1(CCCCC1)NC(=O)N[C@H](CO)CC2 has a reported z-score of 0.0538

====

Listed here are molecules together with their documented composite z-score.
TGT: Alpha-bungarotoxin (Bungarus multicinctus)
ASSAY_EXPLANATION: compounds binding labelled alpha-BTX control protein – biochemical, small-molecule microarray, Alexa647 label, 635/667 nm fluorescence, artefact control for SMM control protein annotation, profiling panel (AID 1117)
ASSAY_SETUP: alpha-BTX-A647 binding fluorescence, higher = more signal
No unit in the answer, please; the number alone is enough.

Consider the worked cases shown below.
MOLECULE: CCCC(=O)N(CCc1c[nH]c2ccccc12)[C@@H]1CC(C(=O)NCCO)=C[C@H](Oc2c(I)cc(CO)cc2OC)[C@H]1O
TGT: Alpha-bungarotoxin (Bungarus multicinctus)
composite z-score: -0.0162
//
MOLECULE: COCCOC(=O)N1C(=O)[C@@]2(c3ccccc31)[C@H](C(=O)N1CCc3cc(OC)c(OC)cc3C1)[C@H]1C(=O)O[C@H](c3ccccc3)[C@H](c3ccccc3)N1[C@@H]2c1ccc(O)cc1
TGT: Alpha-bungarotoxin (Bungarus multicinctus)
composite z-score: 1.65
//
MOLECULE: CCCCN1CC=CC23O[C@@H]4/C=C\CCCOC(=O)C4[C@H]2C(=O)N(CCCCCO)[C@@H]3C1=O (some centres not stated)
TGT: Alpha-bungarotoxin (Bungarus multicinctus)
composite z-score: -0.509
//
MOLECULE: O=C1O[C@H](c2ccccc2)[C@H](c2ccccc2)N2[C@H]1[C@@H](C(=O)NC[C@H](O)c1ccccc1)[C@]1(C(=O)Nc3ccc(C#CC4=CCCCC4)cc31)[C@H]2c1ccccc1OCCO
TGT: Alpha-bungarotoxin (Bungarus multicinctus)
composite z-score: 1.7
//
MOLECULE: C=CC1c2cc(O)c(OC)cc2CCN1Cc1cccc(OC(F)(F)F)c1 (configuration not stated)
TGT: Alpha-bungarotoxin (Bungarus multicinctus)
composite z-score: 0.39
//
MOLECULE: CC1CC/C=C\[C@H]2OC34C=CCN(c5ccc6ccccc6c5)C(=O)[C@H]3N(CCO)C(=O)[C@@H]4C2C(=O)O1 (some centres not stated)
TGT: Alpha-bungarotoxin (Bungarus multicinctus)
composite z-score: -1.01

COc1ccc([C@H]2C[C@H]3C(I)=C[C@@H]2C(=O)[C@]32CO2)cc1 has a reported composite z-score of 0.957

====

ASSAY_EXPLANATION: COS7 lysate on small-molecule microarray, probe aHis, 635 nm (AID 1123);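 further: z-score combines 667nm fluorescence intensity with signal-to-noise per printed compound spot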
ASSAY_SETUP: COS7 cell lysate, fluorescence, higher = more signal
METRIC: composite z-score
No unit in the answer, please; the number alone is enough.

COMPOUND: COc1cc(CO)cc(I)c1O[C@H]1C=C(C(=O)NCCO)C[C@@H](NC[C@@H]2CCCO2)[C@@H]1O
composite z-score: -0.0856

COc1ccc(CCNC(=O)[C@@]2(c3ccc([N+](=O)[O-])cc3)CC(=O)N(CC34CC5CC(CC(C5)C3)C4)[C@@H]2c2ccc(CO)cc2I)cc1 has a reported composite z-score of 2.27

Cc1ccc(S[C@]2(C(=O)O)CC(=O)N(C(C)C)[C@@H]2c2ccc(CO)cc2)cc1 has a reported composite z-score of -0.216

CCCCCN1CC=CC23O[C@@H]4C=CCOC(=O)[C@@H]4[C@H]2C(=O)N(C(C)CO)[C@@H]3C1=O (some centres not stated) has a reported composite z-score of -0.284

COC(=O)C(CC#Cc1ccc2c(c1)[C@]1(C(=O)N2)[C@H](c2ccccc2OCCO)N2[C@H](c3ccccc3)[C@H](c3ccccc3)OC(=O)[C@H]2[C@@H]1C(=O)O)C(=O)OC has a reported composite z-score of 1.7

C=C(C)[C@@H]1CC=C(C(O)C2C=CC3C(=O)NC(=O)C3N2Nc2ccc(Cl)cc2Cl)CC1 (some centres not stated) has a reported composite z-score of 2

O=C1NC(=O)C2C1C=CC(C(O)C1CC=CCC1)N2Nc1ccccn1 (configuration not stated) has a reported composite z-score of 0.793
